# Test system: Liver microsomes
# applied conditions: human, 1 µM
endpoint name: t1/2 (min)
Use min as the unit, but write only the number.

Reference set (5 entries):
>  <query smiles>
Cc1cc(Nc2ccc3ccccc3c2)n2ncnc2n1

>  <system tested>
Liver microsomes

>  <endpoint name>
t1/2

>  <recorded number>
18

$$$$
>  <query smiles>
Cc1cc(Nc2ccc(C)c(C)c2)n2ncnc2n1

>  <system tested>
Liver microsomes

>  <endpoint name>
t1/2

>  <recorded number>
23

$$$$
>  <query smiles>
Cc1cc(Nc2cccc(C(F)(F)F)c2)n2ncnc2n1

>  <system tested>
Liver microsomes

>  <endpoint name>
t1/2

>  <recorded number>
60

$$$$
>  <query smiles>
Cc1cc(Nc2ccc(C)c(F)c2)n2ncnc2n1

>  <system tested>
Liver microsomes

>  <endpoint name>
t1/2

>  <recorded number>
36

$$$$
>  <query smiles>
Cc1cc(Nc2ccc(C#N)c(C(F)(F)F)c2)n2ncnc2n1

>  <system tested>
Liver microsomes

>  <endpoint name>
t1/2

>  <recorded number>
280

$$$$

Case `Cc1cc(Nc2ccc(Br)c(C(F)(F)F)c2)n2ncnc2n1` , Liver microsomes, t1/2 recorded as 130

----------
# experiment: Half life in Swiss mouse at 50 mg/kg, po administered as single dose
# Type: ADME, organism-based
# Set-up: dose 50 mg/kg, route oral
# applied conditions: in vivo
endpoint name: half-life (h)
Use h as the unit, but write only the number.

Lookup result for `Cc1cc(Nc2ccc(C(F)(F)F)cc2)n2ncnc2n1` ; measured half-life: 3

----------
# Test system: Plasmodium berghei
# experiment: Inhibition of Plasmodium berghei ANKA DHODH
Label fulfilled when IC50 < 3 µM; otherwise not fulfilled.

Example cases with answers are listed next.
>  <query smiles>
Cc1cc(Nc2cc(F)ccc2F)n2ncnc2n1

>  <cat>
not fulfilled

$$$$
>  <query smiles>
Cc1ccc(Nc2cc(C)nc3ncnn23)cc1

>  <cat>
not fulfilled

$$$$
>  <query smiles>
Cc1cc(Nc2ccc(Br)c(C(F)(F)F)c2)n2ncnc2n1

>  <cat>
fulfilled

$$$$

# input Does the reported IC50 of `Cc1cc(Nc2ccc(C)c(C)c2)n2ncnc2n1` stay below 3 µM?
# output not fulfilled

# input Does the reported IC50 of `Cc1cc(Nc2ccc(C)c(F)c2)n2ncnc2n1` stay below 3 µM?
# output not fulfilled

----------
# system tested: Dihydroorotate dehydrogenase (Plasmodium falciparum)
# Sequence (Q54A96 whole entry): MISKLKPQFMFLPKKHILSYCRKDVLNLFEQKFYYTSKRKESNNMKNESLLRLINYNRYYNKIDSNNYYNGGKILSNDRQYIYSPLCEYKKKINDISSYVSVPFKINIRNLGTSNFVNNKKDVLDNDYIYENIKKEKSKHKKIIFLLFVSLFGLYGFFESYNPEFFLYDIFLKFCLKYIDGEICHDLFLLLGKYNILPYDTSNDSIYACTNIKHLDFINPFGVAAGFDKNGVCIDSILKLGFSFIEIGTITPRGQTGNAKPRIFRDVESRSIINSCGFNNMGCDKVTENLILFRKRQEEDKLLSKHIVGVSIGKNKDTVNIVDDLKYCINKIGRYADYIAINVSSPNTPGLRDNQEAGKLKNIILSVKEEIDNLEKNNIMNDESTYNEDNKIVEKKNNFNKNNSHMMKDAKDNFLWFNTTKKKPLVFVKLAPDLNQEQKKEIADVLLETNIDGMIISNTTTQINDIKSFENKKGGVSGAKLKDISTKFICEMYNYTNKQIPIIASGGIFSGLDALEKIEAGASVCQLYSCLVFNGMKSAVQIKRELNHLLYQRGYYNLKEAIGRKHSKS
Entries annotated with measured IC50
Use µM as the unit, but write only the number.

Reference set (3 entries):
>  <query smiles>
Cc1cc(Nc2ccc(Cl)cc2)n2ncnc2n1

>  <IC50, µM>
1.6

$$$$
>  <query smiles>
Cc1ccc(Nc2cc(C)nc3ncnn23)c(F)c1

>  <IC50, µM>
27

$$$$
>  <query smiles>
Cc1cc(Nc2ccc(Br)c(C(F)(F)F)c2)n2ncnc2n1

>  <IC50, µM>
0.45

$$$$

Case `Cc1cc(Nc2cccc(Cl)c2)n2ncnc2n1` , Dihydroorotate dehydrogenase (Plasmodium falciparum), IC50 recorded as 1.4

Case `Cc1cc(Nc2cccc(F)c2)n2ncnc2n1` , Dihydroorotate dehydrogenase (Plasmodium falciparum), IC50 recorded as 9.2

----------
# Test system: Liver microsomes
# applied conditions: human, 1 µM
Everything with t1/2 lower than 0.8 h is Not fulfilled; everything else, including exactly 0.8 h, is Fulfilled.

>  <query smiles>
Cc1cc(Nc2ccc(Cl)c(C(F)(F)F)c2)n2ncnc2n1

>  <cat>
Fulfilled

$$$$
>  <query smiles>
Cc1cc(Nc2ccc(C(F)(F)F)c(F)c2)n2ncnc2n1

>  <cat>
Fulfilled

$$$$

# input t1/2 >= 0.8 h for `Cc1cc(Nc2cccc(F)c2)n2ncnc2n1` ?
# output Fulfilled

# input t1/2 >= 0.8 h for `Cc1cc(Nc2cccc(Cl)c2)n2ncnc2n1` ?
# output Not fulfilled

# input t1/2 >= 0.8 h for `Cc1cc(Nc2ccc3cc4ccccc4cc3c2)n2ncnc2n1` ?
# output Not fulfilled

# input t1/2 >= 0.8 h for `Cc1cc(Nc2ccc(C(F)(F)F)cc2)n2ncnc2n1` ?
# output Fulfilled

Sourced from ChEMBL document CHEMBL1153392
